- system-under-test: F508del-CFTR in CFBE41o– cells (Homo sapiens)
- Sequence (Q99942 2-180): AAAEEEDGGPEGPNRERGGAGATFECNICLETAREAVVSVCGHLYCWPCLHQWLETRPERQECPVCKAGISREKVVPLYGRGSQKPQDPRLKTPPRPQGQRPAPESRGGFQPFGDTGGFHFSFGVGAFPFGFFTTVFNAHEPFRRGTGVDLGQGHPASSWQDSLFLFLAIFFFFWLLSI
- Sequence (P13569 with tags, fused parts or gaps DEL508-508 partner): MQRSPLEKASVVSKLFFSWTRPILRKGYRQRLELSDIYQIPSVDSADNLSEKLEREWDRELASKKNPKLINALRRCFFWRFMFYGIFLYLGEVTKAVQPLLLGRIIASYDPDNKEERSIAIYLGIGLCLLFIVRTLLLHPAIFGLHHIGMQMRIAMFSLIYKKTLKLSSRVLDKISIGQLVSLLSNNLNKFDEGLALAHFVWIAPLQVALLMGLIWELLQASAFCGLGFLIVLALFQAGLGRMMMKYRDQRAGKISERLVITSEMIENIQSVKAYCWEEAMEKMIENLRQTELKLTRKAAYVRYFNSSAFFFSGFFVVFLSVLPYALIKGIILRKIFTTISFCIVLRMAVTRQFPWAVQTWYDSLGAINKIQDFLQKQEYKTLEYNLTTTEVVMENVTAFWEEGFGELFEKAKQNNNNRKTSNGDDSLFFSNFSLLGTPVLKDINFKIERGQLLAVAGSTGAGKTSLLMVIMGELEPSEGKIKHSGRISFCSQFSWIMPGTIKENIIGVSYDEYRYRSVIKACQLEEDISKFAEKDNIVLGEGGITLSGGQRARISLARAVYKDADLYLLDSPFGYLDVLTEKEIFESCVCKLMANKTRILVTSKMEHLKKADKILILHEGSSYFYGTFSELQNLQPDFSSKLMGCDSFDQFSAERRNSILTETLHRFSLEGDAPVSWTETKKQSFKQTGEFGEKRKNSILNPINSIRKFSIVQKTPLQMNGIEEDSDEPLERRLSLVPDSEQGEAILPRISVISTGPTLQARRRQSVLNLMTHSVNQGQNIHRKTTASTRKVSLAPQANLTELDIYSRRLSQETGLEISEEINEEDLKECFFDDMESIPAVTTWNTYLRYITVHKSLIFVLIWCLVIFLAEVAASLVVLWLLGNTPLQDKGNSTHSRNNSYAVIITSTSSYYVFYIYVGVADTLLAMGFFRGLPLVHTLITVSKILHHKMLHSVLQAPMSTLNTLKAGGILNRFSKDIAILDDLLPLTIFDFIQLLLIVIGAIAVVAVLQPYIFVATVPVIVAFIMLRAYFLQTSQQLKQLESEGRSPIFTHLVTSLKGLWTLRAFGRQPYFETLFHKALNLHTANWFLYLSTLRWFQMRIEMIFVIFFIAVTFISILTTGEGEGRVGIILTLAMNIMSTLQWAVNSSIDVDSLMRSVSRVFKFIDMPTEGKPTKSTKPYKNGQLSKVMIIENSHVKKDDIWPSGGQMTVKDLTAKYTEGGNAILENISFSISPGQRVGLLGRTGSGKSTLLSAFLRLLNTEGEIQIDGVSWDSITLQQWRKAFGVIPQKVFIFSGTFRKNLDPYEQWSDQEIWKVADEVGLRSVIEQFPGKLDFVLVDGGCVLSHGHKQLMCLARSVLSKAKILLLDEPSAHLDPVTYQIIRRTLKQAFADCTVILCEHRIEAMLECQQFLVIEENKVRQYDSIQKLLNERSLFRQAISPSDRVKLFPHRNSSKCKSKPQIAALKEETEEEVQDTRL
- test-summary: HS-YFP microfluorimetric assay of F508del-CFTR rescue (corrector activity)
- Format: cell-based
- experimental-setup: CFBE41o– cells co-expressing F508del-CFTR and HS-YFP, 24 h treatment, Figure 5
measured-attribute: F508del-CFTR corrector activity compared with inh-2 (CFTR activity, primary screen)

So, Cc1ns/c(=N\C(=N\Cc2ccccc2)c2ccccc2)n1Cc1ccccc1 ? Its F508del-CFTR corrector activity compared with inh-2 (CFTR activity, primary screen) was inactive analogs

So, Cc1ns/c(=N\C(=N\c2ccccc2)c2ccccc2)n1Cc1cccc(N)c1 ? Its F508del-CFTR corrector activity compared with inh-2 (CFTR activity, primary screen) was decreased potency

So, Cc1ns/c(=N\C(=N\c2cccnc2)c2ccccc2)n1Cc1ccccc1 ? Its F508del-CFTR corrector activity compared with inh-2 (CFTR activity, primary screen) was inactive analogs

So, Cc1ns/c(=N\C(=N\c2ccccc2)c2ccccc2)n1Cc1cccc(O)c1 ? Its F508del-CFTR corrector activity compared with inh-2 (CFTR activity, primary screen) was increased activity

So, Cc1ns/c(=N\C(=N\c2ccccc2)c2ccccc2)n1Cc1cccc(C(F)(F)F)c1 ? Its F508del-CFTR corrector activity compared with inh-2 (CFTR activity, primary screen) was decreased potency

New cases:
So, Cc1cccc(/N=C(/N=c2\snc(C)n2Cc2ccccc2)c2ccccc2)c1 ? Its F508del-CFTR corrector activity compared with inh-2 (CFTR activity, primary screen) was inactive analogs

So, Cc1ns/c(=N\C(=N\c2ccccc2)c2ccccc2)n1Cc1cccc(Cl)c1 ? Its F508del-CFTR corrector activity compared with inh-2 (CFTR activity, primary screen) was increased activity
